Test: Cell viability assay (MTT), Aβ1-42-induced cytotoxicity
Type: cell-based, rat
Settings: PC12 cells, MTT, 1 μM oligomeric Aβ1-42, peptide 0.008-15 μM, overnight 37°C, quintuplicates, logistic fit; read-out: IC50, reduction of Aβ1-42-induced cytotoxicity (cell viability)
Non-standard residues stand in square brackets, D forms with d. Residues, ends and D or L forms follow the SMILES beside them.
Parameter: IC50 (µM)
Field: numeric (µM). Do not append units.

Query block: Tell me the measured IC50 of CC[C@@H](C)[C@@H](NC(=O)[C@@H](CCCNC(=N)N)NC(=O)[C@@H](CCCCN)NC(=O)[C@H](N)CCCNC(=N)N)C(=O)N[C@H](CCCNC(=N)N)C(=O)N[C@H](CC(C)C)C(=O)N[C@@H](C(=O)N[C@@H](C(=O)N[C@H](CCCCN)C(=O)N[C@H](CCCCN)C(=O)N[C@H](CCCCN)C(=O)N[C@H](CCCNC(=N)N)C(N)=O)[C@H](C)O)C(C)C [ANK6] (H-[dR][dK][dR][dI][dR][dL][dV][dT][dK][dK][dK][dR]-NH2; N-terminus assumed) , please.
Result block: 11.2
